Measured IC50, listed per entry.
Target: Histamine H1 receptor (Homo sapiens, UniProt P35367)
Sequence (P35367 whole entry): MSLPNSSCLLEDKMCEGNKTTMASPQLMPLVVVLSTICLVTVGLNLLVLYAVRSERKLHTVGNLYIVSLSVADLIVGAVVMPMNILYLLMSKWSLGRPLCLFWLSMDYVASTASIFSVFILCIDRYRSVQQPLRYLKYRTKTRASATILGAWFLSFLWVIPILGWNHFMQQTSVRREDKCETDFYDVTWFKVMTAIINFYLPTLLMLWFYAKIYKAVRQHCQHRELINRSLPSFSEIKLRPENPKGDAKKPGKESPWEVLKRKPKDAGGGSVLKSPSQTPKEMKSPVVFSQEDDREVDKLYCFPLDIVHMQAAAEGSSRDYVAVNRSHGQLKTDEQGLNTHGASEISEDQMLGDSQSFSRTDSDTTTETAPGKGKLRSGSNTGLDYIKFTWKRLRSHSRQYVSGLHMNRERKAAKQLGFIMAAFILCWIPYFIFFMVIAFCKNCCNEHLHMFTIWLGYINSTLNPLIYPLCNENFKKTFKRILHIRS
Format: functional

Example results:
* COC(=O)c1ccc(Cn2c(C(=O)C3CCN(CCC4(c5ccccc5)CCN(C(=O)c5cc(OC)c(OC)c(OC)c5)C4)CC3)nc3ccccc32)cc1 (stereo unspecified) | 1210 nM
* COc1cc(C(=O)N2CCC(CCN3CCC(C(=O)c4nc5ccccc5n4CCOCc4ccco4)CC3)(c3ccccc3)C2)cc(OC)c1OC (stereo unspecified) | 446 nM
* COc1cc(C(=O)N2CCC(CCN3CCC(C(=O)c4nc5ccccc5n4Cc4ccc(F)cc4)CC3)(c3ccc(Cl)c(Cl)c3)C2)cc(OC)c1OC (stereo unspecified) | 124 nM
* COc1cc(C(=O)N2CCC(CCN3CCC(C(=O)c4nc5ccccc5n4Cc4ccc(C(=O)O)cc4)CC3)(c3ccccc3)C2)cc(OC)c1OC (stereo unspecified) | 3420 nM
* COc1ccccc1CN[C@H]1C2CCN(CC2)[C@H]1C(c1ccccc1)c1ccccc1 | ~10000 nM

Continue with the next compound.
Which IC50 value is on record for COc1ccc(C2(CCN3CCC(C(=O)c4nc5ccccc5n4Cc4ccc(F)cc4)CC3)CCN(C(=O)c3cc(OC)c(OC)c(OC)c3)C2)cc1OC (stereo unspecified) ?
309 nM
